- tested target: Glutamate receptor ionotropic, NMDA 2B (Rattus norvegicus, UniProt Q00960)
- Sequence (Q00960 whole entry): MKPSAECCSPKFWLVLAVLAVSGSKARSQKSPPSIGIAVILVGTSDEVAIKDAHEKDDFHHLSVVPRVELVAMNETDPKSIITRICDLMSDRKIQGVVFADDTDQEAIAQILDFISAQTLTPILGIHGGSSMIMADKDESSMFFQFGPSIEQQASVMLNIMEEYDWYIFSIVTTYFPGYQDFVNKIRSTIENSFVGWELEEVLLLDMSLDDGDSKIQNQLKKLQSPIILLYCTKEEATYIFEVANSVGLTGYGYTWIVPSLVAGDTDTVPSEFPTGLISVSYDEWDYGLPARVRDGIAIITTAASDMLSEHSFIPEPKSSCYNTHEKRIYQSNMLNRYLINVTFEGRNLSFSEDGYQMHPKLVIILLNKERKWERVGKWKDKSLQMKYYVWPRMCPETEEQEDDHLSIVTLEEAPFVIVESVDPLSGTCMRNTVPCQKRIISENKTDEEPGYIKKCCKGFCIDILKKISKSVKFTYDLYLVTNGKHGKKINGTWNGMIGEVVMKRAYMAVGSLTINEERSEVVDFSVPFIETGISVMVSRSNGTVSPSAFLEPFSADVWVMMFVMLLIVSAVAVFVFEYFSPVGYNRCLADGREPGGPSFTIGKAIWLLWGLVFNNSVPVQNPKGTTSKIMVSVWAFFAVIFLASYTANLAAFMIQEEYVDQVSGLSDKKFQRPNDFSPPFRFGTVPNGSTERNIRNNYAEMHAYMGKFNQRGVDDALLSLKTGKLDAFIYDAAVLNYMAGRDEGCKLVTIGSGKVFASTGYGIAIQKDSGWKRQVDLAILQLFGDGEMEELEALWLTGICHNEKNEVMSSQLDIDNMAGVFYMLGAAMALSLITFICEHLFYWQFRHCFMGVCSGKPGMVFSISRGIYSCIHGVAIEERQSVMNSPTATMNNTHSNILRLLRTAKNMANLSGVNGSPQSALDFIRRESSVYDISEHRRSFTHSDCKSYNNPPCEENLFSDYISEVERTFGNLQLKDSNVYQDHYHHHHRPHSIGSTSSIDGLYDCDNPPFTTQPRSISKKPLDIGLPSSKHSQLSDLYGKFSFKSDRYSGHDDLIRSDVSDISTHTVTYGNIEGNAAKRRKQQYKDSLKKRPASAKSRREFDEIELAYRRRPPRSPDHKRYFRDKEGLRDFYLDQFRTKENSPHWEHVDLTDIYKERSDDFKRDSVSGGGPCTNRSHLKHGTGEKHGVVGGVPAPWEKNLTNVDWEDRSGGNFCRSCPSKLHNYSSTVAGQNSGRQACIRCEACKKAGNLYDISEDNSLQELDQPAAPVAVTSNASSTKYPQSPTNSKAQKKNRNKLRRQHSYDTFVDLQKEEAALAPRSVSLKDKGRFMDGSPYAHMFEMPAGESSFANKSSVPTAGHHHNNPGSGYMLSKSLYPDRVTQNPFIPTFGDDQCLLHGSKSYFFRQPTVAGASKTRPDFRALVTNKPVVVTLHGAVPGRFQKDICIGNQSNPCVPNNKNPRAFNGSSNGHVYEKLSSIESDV
- method summary: Displacement of [3H]-ifenprodil from NR2B receptor in rat brain cerebral cortex membranes incubated for 120 mins by liquid scintillation counting method
pIC50: −log10 of the molar value.
readout name: pIC50

[[record]]
structure_smiles_string = "COc1ccc(N2CCN(C(=O)C(=O)Nc3ccc4[nH]c(=O)oc4c3)CC2)cc1F"
tested_target = "Glutamate receptor ionotropic, NMDA 2B (Rattus norvegicus, UniProt Q00960)"
result_comparator = "="
observed_result = 7.80

[[record]]
structure_smiles_string = "C[C@@H]1CN(C(=O)C(=O)Nc2ccc3[nH]c(=O)oc3c2)CCN1c1ccc(F)c(F)c1"
tested_target = "Glutamate receptor ionotropic, NMDA 2B (Rattus norvegicus, UniProt Q00960)"
result_comparator = "="
observed_result = 7.20

[[record]]
structure_smiles_string = "O[C@]1(Cc2cc(-c3cn[nH]c3)on2)CC[C@@H](Cc2ccc(C(F)(F)F)cc2)CC1"
tested_target = "Glutamate receptor ionotropic, NMDA 2B (Rattus norvegicus, UniProt Q00960)"
result_comparator = "="
observed_result = 7.00

[[record]]
structure_smiles_string = "O=C(Nc1ccc2[nH]c(=O)oc2c1)C(=O)N1CCN(c2ccc(Cl)c(F)c2)CC1"
tested_target = "Glutamate receptor ionotropic, NMDA 2B (Rattus norvegicus, UniProt Q00960)"
result_comparator = "="
observed_result = 7.90

[[record]]
structure_smiles_string = "O=C(c1cc(-c2ccc(=O)[nH]c2)on1)N1CCC(Cc2ccc(Cl)cc2)CC1"
tested_target = "Glutamate receptor ionotropic, NMDA 2B (Rattus norvegicus, UniProt Q00960)"
result_comparator = "="
observed_result = 7.60

[[record]]
structure_smiles_string = "O=C1CCc2cc(NC(=O)C(=O)N3CCN(c4ccc(Cl)cc4)CC3)ccc2N1"
tested_target = "Glutamate receptor ionotropic, NMDA 2B (Rattus norvegicus, UniProt Q00960)"
result_comparator = "<"
observed_result = 6.00

[[record]]
structure_smiles_string = "O=C(c1cc(-c2ccc(=O)[nH]c2)on1)N1CCN(Cc2ccc(Cl)cc2)CC1"
tested_target = "Glutamate receptor ionotropic, NMDA 2B (Rattus norvegicus, UniProt Q00960)"
result_comparator = "<"
observed_result = 6.00

[[record]]
structure_smiles_string = "O=C(c1cc(-c2ccc(=O)[nH]c2)on1)N1CCC(Cc2ccc(F)cc2)CC1"
tested_target = "Glutamate receptor ionotropic, NMDA 2B (Rattus norvegicus, UniProt Q00960)"
result_comparator = "="
observed_result = 7.30

[[record]]
structure_smiles_string = "COc1ccc(N2CCN(C(=O)C(=O)Nc3ccc4[nH]c(=O)oc4c3)CC2)cc1"
tested_target = "Glutamate receptor ionotropic, NMDA 2B (Rattus norvegicus, UniProt Q00960)"
result_comparator = "="
observed_result = 6.60

[[record]]
structure_smiles_string = "O=C(Nc1ccc2[nH]c(=O)oc2c1)C(=O)N1CCN(c2ccc(F)c(F)c2)CC1"
tested_target = "Glutamate receptor ionotropic, NMDA 2B (Rattus norvegicus, UniProt Q00960)"
result_comparator = "="
observed_result = 7.70

[[record]]
structure_smiles_string = "O=C(c1cc(-c2cc[nH]n2)on1)N1CCC(Cc2ccccc2)CC1"
tested_target = "Glutamate receptor ionotropic, NMDA 2B (Rattus norvegicus, UniProt Q00960)"
result_comparator = "="
observed_result = 7.10

[[record]]
structure_smiles_string = "C[C@@H]1CN(C(=O)C(=O)Nc2ccc3[nH]c(=O)oc3c2)CCN1c1ccc(Cl)c(F)c1"
tested_target = "Glutamate receptor ionotropic, NMDA 2B (Rattus norvegicus, UniProt Q00960)"
result_comparator = "="
observed_result = 7.30

[[record]]
structure_smiles_string = "O=C(Nc1ccc2[nH]c(=O)oc2c1)C(=O)N1CCN(Cc2ccc(Cl)cc2)CC1"
tested_target = "Glutamate receptor ionotropic, NMDA 2B (Rattus norvegicus, UniProt Q00960)"
result_comparator = "="
observed_result = 6.30


###

- tested target: Glutamate receptor ionotropic, NMDA 2B (Mus musculus, UniProt P35438+Q01097)
- Sequence (Q01097 whole entry, one chain of several): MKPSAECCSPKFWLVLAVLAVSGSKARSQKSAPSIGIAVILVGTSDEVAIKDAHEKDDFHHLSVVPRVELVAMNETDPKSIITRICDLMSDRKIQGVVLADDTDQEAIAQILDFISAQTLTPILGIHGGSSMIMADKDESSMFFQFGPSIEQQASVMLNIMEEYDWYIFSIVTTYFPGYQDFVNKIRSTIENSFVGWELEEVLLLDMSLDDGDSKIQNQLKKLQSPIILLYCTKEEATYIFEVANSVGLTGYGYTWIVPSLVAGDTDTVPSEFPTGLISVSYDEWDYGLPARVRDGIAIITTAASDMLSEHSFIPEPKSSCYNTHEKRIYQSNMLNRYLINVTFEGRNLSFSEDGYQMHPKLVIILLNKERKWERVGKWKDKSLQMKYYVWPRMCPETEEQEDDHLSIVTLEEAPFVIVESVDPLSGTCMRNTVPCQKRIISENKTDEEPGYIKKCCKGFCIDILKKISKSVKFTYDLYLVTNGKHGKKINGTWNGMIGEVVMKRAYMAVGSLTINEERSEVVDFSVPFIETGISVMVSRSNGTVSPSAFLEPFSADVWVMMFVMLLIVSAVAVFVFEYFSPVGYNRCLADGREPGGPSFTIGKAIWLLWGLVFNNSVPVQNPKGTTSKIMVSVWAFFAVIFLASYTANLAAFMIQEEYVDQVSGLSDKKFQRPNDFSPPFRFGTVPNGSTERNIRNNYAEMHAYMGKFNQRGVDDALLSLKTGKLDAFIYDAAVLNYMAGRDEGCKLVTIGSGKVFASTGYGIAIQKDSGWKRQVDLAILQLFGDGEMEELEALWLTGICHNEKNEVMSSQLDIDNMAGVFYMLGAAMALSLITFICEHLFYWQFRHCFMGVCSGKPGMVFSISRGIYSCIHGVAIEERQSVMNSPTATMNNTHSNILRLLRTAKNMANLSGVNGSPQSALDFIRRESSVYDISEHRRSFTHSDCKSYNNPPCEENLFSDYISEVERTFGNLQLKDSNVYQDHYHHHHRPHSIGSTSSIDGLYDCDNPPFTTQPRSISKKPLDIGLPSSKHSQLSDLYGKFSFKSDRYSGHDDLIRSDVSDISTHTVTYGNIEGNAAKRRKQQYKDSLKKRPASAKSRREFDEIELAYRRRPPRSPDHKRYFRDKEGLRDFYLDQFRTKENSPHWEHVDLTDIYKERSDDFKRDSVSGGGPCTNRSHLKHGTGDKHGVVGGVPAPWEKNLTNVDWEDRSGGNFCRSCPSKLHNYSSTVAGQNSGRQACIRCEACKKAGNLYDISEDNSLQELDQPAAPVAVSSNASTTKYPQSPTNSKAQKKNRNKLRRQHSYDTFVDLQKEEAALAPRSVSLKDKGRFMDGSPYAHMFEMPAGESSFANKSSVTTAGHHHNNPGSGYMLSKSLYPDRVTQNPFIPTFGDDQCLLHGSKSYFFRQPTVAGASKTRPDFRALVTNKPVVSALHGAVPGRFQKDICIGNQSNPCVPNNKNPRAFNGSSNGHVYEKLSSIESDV
- method summary: Antagonist activity at mouse NR2B receptor expressed in HEK293 cells co-expressing NR1 subunit assessed as reduction in glutamic acid/glycine-induced calcium ion influx by fluorescence based assay
This listing pairs compounds with measured IC50.
readout name: IC50

[[record]]
structure_smiles_string = "O[C@]1(Cc2cc(-c3cn[nH]c3)on2)CC[C@@H](Cc2ccc(C(F)(F)F)cc2)CC1"
tested_target = "Glutamate receptor ionotropic, NMDA 2B (Mus musculus, UniProt P35438+Q01097)"
readout_name = "IC50"
observed_result = "12.6 nM"

[[record]]
structure_smiles_string = "O=C(c1cc(-c2ccc(=O)[nH]c2)on1)N1CCC(Cc2ccccc2)CC1"
tested_target = "Glutamate receptor ionotropic, NMDA 2B (Mus musculus, UniProt P35438+Q01097)"
readout_name = "IC50"
observed_result = "63.1 nM"

[[record]]
structure_smiles_string = "O=C(c1cc(-c2ccc(=O)[nH]c2)on1)N1CCC(Cc2ccc(Cl)cc2)CC1"
tested_target = "Glutamate receptor ionotropic, NMDA 2B (Mus musculus, UniProt P35438+Q01097)"
readout_name = "IC50"
observed_result = "10 nM"

[[record]]
structure_smiles_string = "O=C(c1cc(-c2cc[nH]n2)on1)N1CCC(Cc2ccccc2)CC1"
tested_target = "Glutamate receptor ionotropic, NMDA 2B (Mus musculus, UniProt P35438+Q01097)"
readout_name = "IC50"
observed_result = "50.1 nM"

[[record]]
structure_smiles_string = "O=C(Nc1ccc2[nH]c(=O)oc2c1)C(=O)N1CCN(c2ccc(C(F)(F)F)c(F)c2)CC1"
tested_target = "Glutamate receptor ionotropic, NMDA 2B (Mus musculus, UniProt P35438+Q01097)"
readout_name = "IC50"
observed_result = "1 nM"

[[record]]
structure_smiles_string = "O=C(Nc1ccc2[nH]c(=O)oc2c1)C(=O)N1CCN(c2cc(F)cc(F)c2)CC1"
tested_target = "Glutamate receptor ionotropic, NMDA 2B (Mus musculus, UniProt P35438+Q01097)"
readout_name = "IC50"
observed_result = "100 nM"

